assay: physchem; details: 26 °C, pH 1.2, simulated gastric fluid, thermodynamic from solid
test.readout: solubility at 6 h
Remember to follow the number with its unit.

Qu. Reported solubility at 6 h for CC[C@H]1OC(=O)[C@@](C)(F)C(=O)[C@H](C)[C@@H](O[C@@H]2O[C@H](C)C[C@H](N(C)C)[C@H]2O)[C@](C)(OC)C[C@@H](C)C(=O)[C@H](C)[C@H]2N(CCCCn3cc(-c4cccc(N)c4)nn3)C(=O)O[C@]12C [Form I, solithromycin] : what is it?
Ans. 4810 µg/mL

====

test: in vivo; conditions: female, Balb/c, mouse, po, 5 mg/kg, AUC 0-24
test.readout: AUC(0-t) (ng·h/mL)
Expressed in ng·h/mL, but write only the number.

Qu. Reported AUC(0-t) for CC[C@H]1OC(=O)[C@@](C)(F)C(=O)[C@H](C)[C@@H](O[C@@H]2O[C@H](C)C[C@H](N(C)C)[C@H]2O)[C@](C)(OC)C[C@@H](C)C(=O)[C@H](C)[C@H]2N(CCCCn3cc(-c4cccc(N)c4)nn3)C(=O)O[C@]12C [Form I, solithromycin] : what is it?
Ans. 3160

====

assay: in vivo; settings: male, Balb/c, mouse, po, 100 mg/kg
test.readout: concentration at 2 h (ng/mL)
Expressed in ng/mL, but write only the number.

Qu. Reported concentration at 2 h for CC[C@H]1OC(=O)[C@@](C)(F)C(=O)[C@H](C)[C@@H](O[C@@H]2O[C@H](C)C[C@H](N(C)C)[C@H]2O)[C@](C)(OC)C[C@@H](C)C(=O)[C@H](C)[C@H]2N(CCCCn3cc(-c4cccc(N)c4)nn3)C(=O)O[C@]12C [Form I, solithromycin] : what is it?
Ans. 13400

====

assay: Oral pharmacokinetics in Balb/c mice, single dose 20 or 100 mg/kg; conditions: male, Balb/c, mouse, plasma, po, 20 mg/kg
test.readout: concentration at 0.5 h (ng/mL)
Expressed in ng/mL, but write only the number.

Qu. Reported concentration at 0.5 h for CC[C@H]1OC(=O)[C@@](C)(F)C(=O)[C@H](C)[C@@H](O[C@@H]2O[C@H](C)C[C@H](N(C)C)[C@H]2O)[C@](C)(OC)C[C@@H](C)C(=O)[C@H](C)[C@H]2N(CCCCn3cc(-c4cccc(N)c4)nn3)C(=O)O[C@]12C [Form II, solithromycin] : what is it?
Ans. 6700

====

experiment: Oral pharmacokinetics in Balb/c mice, single dose 20 or 100 mg/kg; settings: female, Balb/c, mouse, plasma, po, 20 mg/kg
test.readout: concentration at 6 h (ng/mL)
Expressed in ng/mL, but write only the number.

Qu. Reported concentration at 6 h for CC[C@H]1OC(=O)[C@@](C)(F)C(=O)[C@H](C)[C@@H](O[C@@H]2O[C@H](C)C[C@H](N(C)C)[C@H]2O)[C@](C)(OC)C[C@@H](C)C(=O)[C@H](C)[C@H]2N(CCCCn3cc(-c4cccc(N)c4)nn3)C(=O)O[C@]12C [Form II, solithromycin] : what is it?
Ans. 1300

====

test: Oral pharmacokinetics in Balb/c mice, single dose 20 or 100 mg/kg; settings: male, Balb/c, mouse, plasma, po, 100 mg/kg
test.readout: Cmax (ng/mL)
Expressed in ng/mL, but write only the number.

Qu. Reported Cmax for CC[C@H]1OC(=O)[C@@](C)(F)C(=O)[C@H](C)[C@@H](O[C@@H]2O[C@H](C)C[C@H](N(C)C)[C@H]2O)[C@](C)(OC)C[C@@H](C)C(=O)[C@H](C)[C@H]2N(CCCCn3cc(-c4cccc(N)c4)nn3)C(=O)O[C@]12C [Form II, solithromycin] : what is it?
Ans. 10600

====

assay: in vivo; settings: female, Balb/c, mouse, po, 20 mg/kg
test.readout: concentration at 0.25 h
Remember to follow the number with its unit.

Qu. Reported concentration at 0.25 h for CC[C@H]1OC(=O)[C@@](C)(F)C(=O)[C@H](C)[C@@H](O[C@@H]2O[C@H](C)C[C@H](N(C)C)[C@H]2O)[C@](C)(OC)C[C@@H](C)C(=O)[C@H](C)[C@H]2N(CCCCn3cc(-c4cccc(N)c4)nn3)C(=O)O[C@]12C [Form I, solithromycin] : what is it?
Ans. 8200 ng/mL

====

experiment: in vivo; settings: female, Balb/c, mouse, po, 100 mg/kg
test.readout: AUC(0-t) (ng·h/mL)
Expressed in ng·h/mL, but write only the number.

Qu. Reported AUC(0-t) for CC[C@H]1OC(=O)[C@@](C)(F)C(=O)[C@H](C)[C@@H](O[C@@H]2O[C@H](C)C[C@H](N(C)C)[C@H]2O)[C@](C)(OC)C[C@@H](C)C(=O)[C@H](C)[C@H]2N(CCCCn3cc(-c4cccc(N)c4)nn3)C(=O)O[C@]12C [Form I, solithromycin] : what is it?
Ans. 91000

====

assay: Aqueous solubility in water at indicated pH; conditions: water at adjusted pH, 26 °C, pH 1.2, simulated gastric fluid, thermodynamic from solid
test.readout: solubility at 6 h

Qu. Reported solubility at 6 h for CC[C@H]1OC(=O)[C@@](C)(F)C(=O)[C@H](C)[C@@H](O[C@@H]2O[C@H](C)C[C@H](N(C)C)[C@H]2O)[C@](C)(OC)C[C@@H](C)C(=O)[C@H](C)[C@H]2N(CCCCn3cc(-c4cccc(N)c4)nn3)C(=O)O[C@]12C [Form II, solithromycin] : what is it?
Ans. 3640 µg/mL

====

details: female, Balb/c, mouse, in vivo, po, 20 mg/kg
test.readout: Tmax
Remember to follow the number with its unit.

Qu. Reported Tmax for CC[C@H]1OC(=O)[C@@](C)(F)C(=O)[C@H](C)[C@@H](O[C@@H]2O[C@H](C)C[C@H](N(C)C)[C@H]2O)[C@](C)(OC)C[C@@H](C)C(=O)[C@H](C)[C@H]2N(CCCCn3cc(-c4cccc(N)c4)nn3)C(=O)O[C@]12C [Form I, solithromycin] : what is it?
Ans. 1.6 h

====

test: physchem; conditions: 26 °C, pH 7.4, aqueous buffer, thermodynamic from solid
test.readout: solubility at 6 h (µg/mL)
Expressed in µg/mL, but write only the number.

Qu. Reported solubility at 6 h for CC[C@H]1OC(=O)[C@@](C)(F)C(=O)[C@H](C)[C@@H](O[C@@H]2O[C@H](C)C[C@H](N(C)C)[C@H]2O)[C@](C)(OC)C[C@@H](C)C(=O)[C@H](C)[C@H]2N(CCCCn3cc(-c4cccc(N)c4)nn3)C(=O)O[C@]12C [Form I, solithromycin] : what is it?
Ans. 2220

====

assay: in vivo; conditions: female, Balb/c, mouse, po, 20 mg/kg
test.readout: AUC(0-t) (ng·h/mL)
Expressed in ng·h/mL, but write only the number.

Qu. Reported AUC(0-t) for CC[C@H]1OC(=O)[C@@](C)(F)C(=O)[C@H](C)[C@@H](O[C@@H]2O[C@H](C)C[C@H](N(C)C)[C@H]2O)[C@](C)(OC)C[C@@H](C)C(=O)[C@H](C)[C@H]2N(CCCCn3cc(-c4cccc(N)c4)nn3)C(=O)O[C@]12C [Form I, solithromycin] : what is it?
Ans. 53000

====

assay: Further oral pharmacokinetic study in female Balb/c mice, 5, 10 and 20 mg/kg; details: mouse, plasma, 20 mg/kg, Tmax, Median, 20 mg/kg single oral dose
test.readout: Tmax (h)
Expressed in h, but write only the number.

Qu. Reported Tmax for CC[C@H]1OC(=O)[C@@](C)(F)C(=O)[C@H](C)[C@@H](O[C@@H]2O[C@H](C)C[C@H](N(C)C)[C@H]2O)[C@](C)(OC)C[C@@H](C)C(=O)[C@H](C)[C@H]2N(CCCCn3cc(-c4cccc(N)c4)nn3)C(=O)O[C@]12C [Form II, solithromycin] : what is it?
Ans. 1

====

assay: in vivo; conditions: female, Balb/c, mouse, po, 100 mg/kg
test.readout: concentration at 1 h (ng/mL)
Expressed in ng/mL, but write only the number.

Qu. Reported concentration at 1 h for CC[C@H]1OC(=O)[C@@](C)(F)C(=O)[C@H](C)[C@@H](O[C@@H]2O[C@H](C)C[C@H](N(C)C)[C@H]2O)[C@](C)(OC)C[C@@H](C)C(=O)[C@H](C)[C@H]2N(CCCCn3cc(-c4cccc(N)c4)nn3)C(=O)O[C@]12C [Form I, solithromycin] : what is it?
Ans. 14700

====

conditions: female, Balb/c, mouse, in vivo, po, 20 mg/kg
test.readout: Cmax
Remember to follow the number with its unit.

Qu. Reported Cmax for CC[C@H]1OC(=O)[C@@](C)(F)C(=O)[C@H](C)[C@@H](O[C@@H]2O[C@H](C)C[C@H](N(C)C)[C@H]2O)[C@](C)(OC)C[C@@H](C)C(=O)[C@H](C)[C@H]2N(CCCCn3cc(-c4cccc(N)c4)nn3)C(=O)O[C@]12C [Form I, solithromycin] : what is it?
Ans. 6640 ng/mL
